Test system: MV-4-11 cells
protocol: MV-4-11 cell proliferation assay (CellTiter-Glo 2.0)
Format: cell-based
protocol-conditions: MV-4-11, 384-well, 11-dose dilution series; read-out: IC50, inhibition of MV-4-11 cell proliferation
quantity-name: IC50 (nM)
Write the value in nM as a bare number.

INSERT INTO assay_data (smiles_notation, measurement) VALUES
  ('CCc1nn(C)c2c1/C=C/c1n[nH]c3ccc(cc13)-c1cnn(C)c1OCCN(C)C2=O', 0.3);

Now look at this one.
Ask | Which IC50 reading was recorded for the compound CCc1c2c(nn1C)C(=O)N(C)CCOc1c(cnn1C)-c1ccc3[nH]nc(c3c1)/C=C/2 ?
Reply | 73.1

* * *

assay-system: phospho-FLT3 (Y589/Y591) (Homo sapiens, UniProt P36888, INS600FREYEYD)
Sequence (P36888 with tags, fused parts or gaps INS600FREYEYD limits assumed): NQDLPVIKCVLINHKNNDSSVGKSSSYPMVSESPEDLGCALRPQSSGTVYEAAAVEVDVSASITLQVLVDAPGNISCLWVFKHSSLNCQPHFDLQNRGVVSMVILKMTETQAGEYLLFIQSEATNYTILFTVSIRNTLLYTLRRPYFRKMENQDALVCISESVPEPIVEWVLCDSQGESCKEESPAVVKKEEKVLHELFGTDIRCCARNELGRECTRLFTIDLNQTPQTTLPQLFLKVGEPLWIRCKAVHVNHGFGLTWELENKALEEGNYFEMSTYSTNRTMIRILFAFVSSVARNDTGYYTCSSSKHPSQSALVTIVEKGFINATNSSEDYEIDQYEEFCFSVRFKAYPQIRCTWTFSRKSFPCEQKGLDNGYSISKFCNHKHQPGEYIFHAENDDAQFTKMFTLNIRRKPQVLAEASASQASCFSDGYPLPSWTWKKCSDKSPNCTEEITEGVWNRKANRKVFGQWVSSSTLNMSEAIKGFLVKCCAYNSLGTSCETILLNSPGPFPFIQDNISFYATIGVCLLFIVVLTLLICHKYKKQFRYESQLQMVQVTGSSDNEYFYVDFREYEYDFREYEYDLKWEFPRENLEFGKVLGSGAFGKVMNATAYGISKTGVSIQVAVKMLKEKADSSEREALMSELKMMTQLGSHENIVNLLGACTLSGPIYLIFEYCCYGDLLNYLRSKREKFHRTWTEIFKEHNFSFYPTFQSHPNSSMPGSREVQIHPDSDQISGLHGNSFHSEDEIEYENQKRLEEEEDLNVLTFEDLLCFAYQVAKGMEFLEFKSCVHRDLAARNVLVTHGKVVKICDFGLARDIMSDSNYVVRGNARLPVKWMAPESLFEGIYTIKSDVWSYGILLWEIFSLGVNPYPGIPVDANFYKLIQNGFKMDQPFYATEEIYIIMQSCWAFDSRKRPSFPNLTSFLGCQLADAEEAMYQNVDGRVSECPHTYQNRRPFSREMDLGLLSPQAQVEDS
protocol: Inhibition of kinase phosphorylation by Western Blot in MOLM-13
protocol-conditions: MOLM-13 cells, 4 hour-incubation; read-out: pFLT3 MOLM-13 IC50
quantity-name: IC50 (nM)
Write the value in nM as a bare number.

Ask | Which IC50 reading was recorded for the molecule CCc1nn(C)c2c1/C=C/c1n[nH]c3ccc(cc13)-c1cnn(C)c1OCCN(C)C2=O ?
Reply | 0.32

* * *

Test system: MV-4-11
protocol: Cell proliferation panel (CellTiter-Glo 2.0, 5 days)
Assay type: cell-based
protocol-conditions: Biphenotypic B-Myelomonocytic Leukemia
quantity-name: pIC50
By convention, pIC50 is the negative base-10 log of a molar concentration.

Ask | Which pIC50 reading was recorded for the compound CCc1nn(C)c2c1/C=C/c1n[nH]c3ccc(cc13)-c1cnn(C)c1OCCN(C)C2=O [Ex. 6] ?
Reply | 9.17

* * *

Test system: HCC38
protocol: Cell proliferation panel (CellTiter-Glo 2.0, 5 days)
Format: cell-based
protocol-conditions: Mammary gland ductal carcinoma
quantity-name: pIC50
By convention, pIC50 is the negative base-10 log of a molar concentration.

Ask | Enter reported pIC50 observed with HCC38 for CCc1nn(C)c2c1/C=C/c1n[nH]c3ccc(cc13)-c1cnn(C)c1OCCN(C)C2=O [Ex. 6]
Reply | 6.79

* * *

System: HNT-34
protocol: Cell proliferation panel (CellTiter-Glo 2.0, 5 days)
Type: cell-based
protocol-conditions: Acute myeloid leukemia
quantity-name: pIC50
By convention, pIC50 is the negative base-10 log of a molar concentration.

Ask | Which pIC50 reading was recorded for the molecule CCc1nn(C)c2c1/C=C/c1n[nH]c3ccc(cc13)-c1cnn(C)c1OCCN(C)C2=O ?
Reply | 7.65

* * *

assay-system: FLT3 (Homo sapiens (Human), UniProt P36888)
Sequence (P36888 27-993): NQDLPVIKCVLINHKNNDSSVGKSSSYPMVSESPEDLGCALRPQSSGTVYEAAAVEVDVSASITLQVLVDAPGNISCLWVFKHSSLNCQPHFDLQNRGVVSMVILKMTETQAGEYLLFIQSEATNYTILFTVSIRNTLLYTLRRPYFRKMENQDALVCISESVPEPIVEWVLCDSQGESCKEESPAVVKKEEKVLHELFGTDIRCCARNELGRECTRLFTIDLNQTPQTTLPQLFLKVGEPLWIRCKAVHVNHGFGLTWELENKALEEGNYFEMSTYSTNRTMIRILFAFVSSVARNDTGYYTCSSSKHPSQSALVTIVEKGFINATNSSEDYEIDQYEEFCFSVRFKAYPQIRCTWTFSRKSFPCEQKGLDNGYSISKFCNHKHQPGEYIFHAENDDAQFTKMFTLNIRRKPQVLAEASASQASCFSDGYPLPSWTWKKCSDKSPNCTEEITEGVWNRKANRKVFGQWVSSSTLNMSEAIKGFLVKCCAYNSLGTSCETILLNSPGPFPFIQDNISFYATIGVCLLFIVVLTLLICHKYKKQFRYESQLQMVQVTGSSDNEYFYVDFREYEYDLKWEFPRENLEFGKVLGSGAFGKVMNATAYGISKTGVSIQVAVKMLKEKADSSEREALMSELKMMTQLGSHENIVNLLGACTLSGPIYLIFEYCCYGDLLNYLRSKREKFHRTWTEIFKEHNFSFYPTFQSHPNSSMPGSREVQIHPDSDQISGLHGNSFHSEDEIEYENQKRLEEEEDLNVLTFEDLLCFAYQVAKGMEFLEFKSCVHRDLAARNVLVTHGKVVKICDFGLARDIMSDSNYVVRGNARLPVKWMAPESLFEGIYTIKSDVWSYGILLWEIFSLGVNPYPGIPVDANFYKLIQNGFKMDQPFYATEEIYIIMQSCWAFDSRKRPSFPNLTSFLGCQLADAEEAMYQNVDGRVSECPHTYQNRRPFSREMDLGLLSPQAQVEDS
quantity-name: pIC50
By convention, pIC50 is the negative base-10 log of a molar concentration.

INSERT INTO measurements (smiles_notation, quantity_name, measurement) VALUES
  ('CCc1nn(C)c2c1/C=C/c1n[nH]c3ccc(cc13)-c1cnn(C)c1O[C@@H](C)CN(C)C2=O', 'pIC50', 9.38),
  ('CN1CCOc2c(cnn2C)-c2ccc3[nH]nc(c3c2)/C=C/c2c(C#N)nn(C)c2C1=O', 'pIC50', 9.64),
  ('CCOc1nn(C)c2c1/C=C/c1n[nH]c3ccc(cc13)-c1cnn(C)c1OCCN(C)C2=O', 'pIC50', 10.03);

Ask | Enter reported pIC50 observed with FLT3 (Homo sapiens (Human), UniProt P36888) for Cc1nn(C(C)C)c2c1/C=C/c1n[nH]c3ccc(cc13)-c1cnn(C)c1OCCN(C)C2=O
Reply | 9.73

Ask | Enter reported pIC50 observed with FLT3 (Homo sapiens (Human), UniProt P36888) for Cc1c2c(nn1CCN1CCCC1)C(=O)N(C)CCOc1c(cnn1C)-c1ccc3[nH]nc(c3c1)/C=C/2
Reply | 9.25
